- target-of-assay: histones
- procedure-details: AtheNA Multi-Lyte ANA, Ab at 12.5 ug/ml
Reported AtheNA signal values follow for various binders

>  <binder>
Ab7960/293i (antibody, IgG1, V domains shown) VH: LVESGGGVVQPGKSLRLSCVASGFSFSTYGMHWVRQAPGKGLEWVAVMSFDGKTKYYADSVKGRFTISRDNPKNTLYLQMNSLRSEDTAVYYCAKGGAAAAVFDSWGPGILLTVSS VL: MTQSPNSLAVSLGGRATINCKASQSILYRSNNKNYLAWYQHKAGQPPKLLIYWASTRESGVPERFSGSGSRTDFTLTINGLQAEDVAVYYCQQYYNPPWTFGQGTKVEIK

>  <AtheNA signal>
26

$$$$

query: Let me know recorded AtheNA signal for Ab7957/293i (antibody, IgG1, V domains shown) VH: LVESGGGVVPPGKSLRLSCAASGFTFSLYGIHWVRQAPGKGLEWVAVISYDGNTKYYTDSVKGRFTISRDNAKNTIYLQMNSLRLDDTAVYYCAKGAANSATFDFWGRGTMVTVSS VL: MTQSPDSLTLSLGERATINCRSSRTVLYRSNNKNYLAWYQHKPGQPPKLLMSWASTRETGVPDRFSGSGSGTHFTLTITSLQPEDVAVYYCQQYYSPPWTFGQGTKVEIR , thanks.
result: 8
